# ASSAYED_SYSTEM: rat CB1 (Rattus norvegicus)
# Construct: expressed in transfected cells; host or cells: HEK293s, transient transfection; membranes prepared
# Sequence (P20272 whole entry): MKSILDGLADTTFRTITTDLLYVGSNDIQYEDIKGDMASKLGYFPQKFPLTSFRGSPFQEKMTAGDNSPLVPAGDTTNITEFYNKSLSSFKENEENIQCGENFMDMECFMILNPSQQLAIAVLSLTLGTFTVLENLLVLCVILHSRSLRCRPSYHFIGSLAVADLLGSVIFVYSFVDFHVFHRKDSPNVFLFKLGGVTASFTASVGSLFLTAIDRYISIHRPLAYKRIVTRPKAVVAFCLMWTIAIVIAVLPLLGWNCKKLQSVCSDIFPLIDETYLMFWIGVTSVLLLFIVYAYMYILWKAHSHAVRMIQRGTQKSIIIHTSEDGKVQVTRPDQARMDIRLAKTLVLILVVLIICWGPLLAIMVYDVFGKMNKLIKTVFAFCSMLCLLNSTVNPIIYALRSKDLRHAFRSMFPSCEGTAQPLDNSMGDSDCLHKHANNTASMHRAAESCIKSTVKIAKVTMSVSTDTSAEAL
# ASSAY_NAME: [35S]-GTPγS binding, membranes of HEK293s cells transfected with rat CB1
# Assay type: biochemical
# MEASUREMENT_PARAMETERS: antagonist mode, vs EC80 concentration of CP55940; mean ± SEM; read-out: CB1 EC50, Rat (ligand behaved as an antagonist)
MEASURED_ENDPOINT: EC50 (nM)

[
  {
    "SMILES_CODE": "Cc1c(C(=O)NN2CCOCC2)nn(-c2ccc(Cl)cc2Cl)c1-c1ccc(I)cc1",
    "NUMERIC_RESULT": 13
  }
]
